- target_or_system: Human αvβ3 (Homo sapiens, UniProt P05106+P06756)
- Construct: purchased Chemicon International Inc., Temecula, Calif
- Sequence (P06756 31-889 limits assumed): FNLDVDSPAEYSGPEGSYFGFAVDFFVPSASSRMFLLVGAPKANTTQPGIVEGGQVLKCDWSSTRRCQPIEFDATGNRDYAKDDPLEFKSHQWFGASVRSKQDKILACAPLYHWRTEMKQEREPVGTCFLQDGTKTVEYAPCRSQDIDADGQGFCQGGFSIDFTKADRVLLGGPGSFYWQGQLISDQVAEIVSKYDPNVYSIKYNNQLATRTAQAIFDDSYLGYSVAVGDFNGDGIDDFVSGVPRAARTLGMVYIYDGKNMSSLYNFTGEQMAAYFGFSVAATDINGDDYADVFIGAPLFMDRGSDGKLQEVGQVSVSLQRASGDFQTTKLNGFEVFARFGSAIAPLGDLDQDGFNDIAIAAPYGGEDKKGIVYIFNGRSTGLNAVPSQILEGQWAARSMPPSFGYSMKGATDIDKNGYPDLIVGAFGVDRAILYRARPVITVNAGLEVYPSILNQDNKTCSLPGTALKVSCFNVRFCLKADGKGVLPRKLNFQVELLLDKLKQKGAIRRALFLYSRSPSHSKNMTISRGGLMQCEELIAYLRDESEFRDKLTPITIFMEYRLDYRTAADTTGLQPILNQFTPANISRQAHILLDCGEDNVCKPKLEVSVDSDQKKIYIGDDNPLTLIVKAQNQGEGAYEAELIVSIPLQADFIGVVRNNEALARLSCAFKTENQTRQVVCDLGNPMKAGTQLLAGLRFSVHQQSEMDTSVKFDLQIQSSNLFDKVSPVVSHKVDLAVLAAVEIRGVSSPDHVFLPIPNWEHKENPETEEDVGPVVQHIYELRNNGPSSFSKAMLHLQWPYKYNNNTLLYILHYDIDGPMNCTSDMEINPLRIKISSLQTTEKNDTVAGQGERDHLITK
- Sequence (P06756 891-1048 partner limits assumed): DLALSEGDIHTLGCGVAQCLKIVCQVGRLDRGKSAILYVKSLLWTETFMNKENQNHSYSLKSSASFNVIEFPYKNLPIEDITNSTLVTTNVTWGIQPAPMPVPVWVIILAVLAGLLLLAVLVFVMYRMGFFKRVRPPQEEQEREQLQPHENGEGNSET
- Sequence (P05106 27-788): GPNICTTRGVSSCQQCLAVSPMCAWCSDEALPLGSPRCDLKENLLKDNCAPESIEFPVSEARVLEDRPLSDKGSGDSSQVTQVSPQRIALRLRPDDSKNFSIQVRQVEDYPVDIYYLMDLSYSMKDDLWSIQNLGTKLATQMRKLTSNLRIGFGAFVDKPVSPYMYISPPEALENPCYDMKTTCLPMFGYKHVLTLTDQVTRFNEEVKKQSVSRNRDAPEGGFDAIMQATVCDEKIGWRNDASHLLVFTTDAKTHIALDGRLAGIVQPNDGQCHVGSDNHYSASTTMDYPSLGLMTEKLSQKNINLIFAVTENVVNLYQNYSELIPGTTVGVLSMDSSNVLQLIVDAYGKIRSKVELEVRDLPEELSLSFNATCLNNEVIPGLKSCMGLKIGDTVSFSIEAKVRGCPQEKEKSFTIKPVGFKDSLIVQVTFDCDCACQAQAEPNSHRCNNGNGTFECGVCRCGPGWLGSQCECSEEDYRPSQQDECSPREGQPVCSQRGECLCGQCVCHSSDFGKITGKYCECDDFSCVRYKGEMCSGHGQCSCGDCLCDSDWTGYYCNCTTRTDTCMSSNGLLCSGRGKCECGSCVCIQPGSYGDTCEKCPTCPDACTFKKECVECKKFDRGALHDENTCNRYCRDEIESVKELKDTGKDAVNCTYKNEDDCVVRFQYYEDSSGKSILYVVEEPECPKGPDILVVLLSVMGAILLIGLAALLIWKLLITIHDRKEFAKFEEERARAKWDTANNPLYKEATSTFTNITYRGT
- test_name: In Vitro Solid Phase Purified αvβ3 Binding Assay (vitronectin/αvβ3)
- details: vitronectin binding to immobilized purified human αvβ3; mean ± spread; read-out: αvβ3IC50
metric: IC50 (nM)

Some compounds with recorded IC50:
compound | target_or_system | units_text | IC50
COc1ccc(C(CCC2CCN(C(=O)CCc3ccc4c(n3)NCCC4)CC2)CC(=O)O)cn1 (single isomer, unassigned) [Cpd 21a] | Human αvβ3 (Homo sapiens, UniProt P05106+P06756) | nM | 21.3
O=C(O)CC(c1ccc2c(c1)OCO2)C1CCN(C(=O)CCc2ccc3c(n2)NCCC3)CC1 (centres unmarked) | Human αvβ3 (Homo sapiens, UniProt P05106+P06756) | nM | 36.1
O=C(O)CC(CC1CCN(C(=O)CCCc2ccc3c(n2)NCCC3)CC1)c1cccc(F)c1 (centres unmarked) | Human αvβ3 (Homo sapiens, UniProt P05106+P06756) | nM | 33

(1) O=C(O)CC(CC1CCN(C(=O)CCc2ccc3c(n2)NCCC3)CC1)c1cccc(F)c1 (single isomer, unassigned) [Cpd 30b]
(2) CC(C)(C)C(=O)OCOC(=O)CCCC1CCN(C(=O)CCc2ccc3c(n2)NCCC3)CC1
(3) O=C(O)CC(CC1CCN(C(=O)CCc2ccc3c(n2)NCCC3)CC1)c1ccc(F)cc1 (centres unmarked)
(4) O=C(O)CC(CC1CCN(C(=O)CCc2ccc3c(n2)NCCC3)CC1)c1ccc(Oc2ccccc2)cc1 (centres unmarked)
(5) COc1ccc(C(CC(=O)O)CC2CCN(C(=O)CCc3ccc4c(n3)NCCC4)CC2)cc1F (centres unmarked)
Exercise: Task field, ranking: reported IC50, descending order. Note for the reader: the ranking is given by listing the labels in the order requested.
Solution: 2, 1, 4, 3, 5

---

- target_or_system: Human αvβ3 (Homo sapiens, UniProt P05106+P06756)
- Construct: purchased Chemicon International Inc., Temecula, Calif
- test_name: In Vitro Solid Phase Purified αvβ3 Binding Assay (vitronectin/αvβ3)
- details: vitronectin binding to immobilized purified human αvβ3; mean ± spread; read-out: αvβ3IC50
metric: IC50 (nM)

Field: example entries. Status: answers known.
molecule | metric | units_text | reading
O=C(O)CC(CC1CCN(C(=O)CCc2ccc3c(n2)NCCC3)CC1)c1cccc(F)c1 (stereo not shown) [Cpd 30] | IC50 | nM | 1
O=C(O)CC(CC1CCN(C(=O)CCc2ccc3c(n2)NCCC3)CC1)c1cccc(F)c1 (single isomer, unassigned) [Cpd 30a] | IC50 | nM | 0.4

(1) COc1ccc(C(CCC2CCN(C(=O)CCCNc3ccccn3)CC2)CC(=O)O)cn1 (stereo not shown)
(2) COc1ccc(C(CCC2CCN(C(=O)CCc3ccc4c(n3)NCCC4)CC2)CC(=O)O)cn1 (single isomer, unassigned) [Cpd 21b]
(3) O=C(O)CC(CC1CCN(C(=O)CCc2ccc3c(n2)NCCC3)CC1)C1CCOC1 (racemic)
(4) COc1cccc(C(CC(=O)O)CC2CCN(C(=O)CCc3ccc4c(n3)NCCC4)CC2)c1 (racemic)
(5) O=C(O)CC(CC1CCN(C(=O)CCc2ccc3c(n2)NCCC3)CC1)c1cccs1 (racemic)
Exercise: Please order the records by their reported IC50, lowest number first. Rank the items, then write their labels in that order.
Solution: 5, 4, 1, 3, 2
